# Tested on: Puccinia graminis (f. sp. tritici Race 15B-2)
# test: whole plant or invertebrate
# Type: in vivo
# protocolConditions: 336 h, read-out: % control WSR
measurementType: pest or weed control at 300 ppm
The reply should consist of the numeric value with the unit placed after it.

[[record]]
structure = "CCCCCCNC(=O)/C=C\\SC(C(C)=O)C(C)=O"
reportedvalue = "70%"

[[record]]
structure = "CCCCCCCNC(=O)/C=C\\SC(C(C)=O)C(C)=O"
reportedvalue = "80%"

[[record]]
structure = "CCCCCCNC(=O)/C(Cl)=C(/Cl)SC(C(C)=O)C(C)=O"
reportedvalue = "60%"

[[record]]
structure = "CCCCCNC(=O)/C=C\\SC(C(C)=O)C(C)=O"
reportedvalue = "60%"


Continue with the compound presented below.
Which pest or weed control at 300 ppm reading was recorded for the compound "CC(=O)C(S/C(Cl)=C(/Cl)C(=O)NC1CCCCC1)C(C)=O" ?
0%

----------
We begin with a simple list: items and their reported MIC.
# Test system: Escherichia coli (E.c)
# test: MIC, broth two-fold serial dilution (Table 3), E.c
# Type: cell-based
# protocolConditions: Table 3, broth two-fold serial dilution, read-out: MIC E.c
Give a bare numeral; the unit µg/mL is implied.

[[record]]
compound = "CC(=O)C(S/C(Cl)=C(/Cl)C(=O)NC1CCCCC1)C(C)=O [Example 6]"
systemtested = "Escherichia coli (E.c)"
uom = "µg/mL"
reportedvalue = 500


Continue with the compound presented below.
Which MIC reading was recorded for the compound CCCCCCCCNC(=O)/C=C\SC(C(=O)Nc1cc(C)ccc1Cl)C(=O)OCC (centres unmarked) [Example 42] ?
500

----------
We begin with a simple list: items and their reported MIC.
# Tested on: Staphylococcus aureus (S.a)
# test: MIC, broth two-fold serial dilution (Table 3), S.a
# Assay type: cell-based
# protocolConditions: Table 3, broth two-fold serial dilution, read-out: MIC S.a
Give a bare numeral; the unit µg/mL is implied.

[[record]]
compound = "CCCCCCCCNC(=O)/C=C\\SC(C(=O)Nc1cc(C)ccc1Cl)C(=O)OCC (centres unmarked) [Example 42]"
uom = "µg/mL"
reportedvalue = 8


Continue with the compound presented below.
Which MIC reading was recorded for the compound CC(=O)C(S/C(Cl)=C(/Cl)C(=O)NC1CCCCC1)C(C)=O [Example 6] ?
16

----------
# Tested on: Aureobasidium pullulans (A.p)
# test: MIC, broth two-fold serial dilution (Table 3), A.p
# Type: cell-based
# protocolConditions: Table 3, broth two-fold serial dilution, read-out: MIC A.p
We begin with a simple list: items and their reported MIC.

Which MIC reading was recorded for the compound CCCCCCCCNC(=O)/C=C\SC(C(=O)NCc1cccnc1)C(=O)OCC (centres unmarked) ?
< 4 µg/mL

Same read-out for "CC(=O)C(S/C(Cl)=C(/Cl)C(=O)NC1CCCCC1)C(C)=O" ?
< 4 µg/mL

----------
# System: Candida albicans (C.alb)
# test: Minimum Inhibitory Concentration Test, alternate (Table 4), C.alb
# Type: cell-based
# protocolConditions: Candida albicans, TSB, 72 hours
measurementType: MIC

[[record]]
compound = "CCCCCCNC(=O)/C(Cl)=C(/Cl)SC(C(C)=O)C(C)=O"
systemtested = "Candida albicans (C.alb)"
reportedvalue = "31 µg/mL"

[[record]]
compound = "CCCCCCCCNC(=O)/C=C\\SC(C(C)=O)C(=O)C1CC1 (stereo not shown)"
systemtested = "Candida albicans (C.alb)"
reportedvalue = "31 µg/mL"

[[record]]
compound = "CCCCCNC(=O)/C=C\\SC(C(C)=O)C(C)=O"
systemtested = "Candida albicans (C.alb)"
reportedvalue = "31 µg/mL"

[[record]]
compound = "CCCCCCCCNC(=O)/C=C\\SC(C(C)=O)C(=O)Nc1ccccc1OC (stereo not shown)"
systemtested = "Candida albicans (C.alb)"
reportedvalue = "8 µg/mL"

[[record]]
compound = "CCCCCCCCNC(=O)/C=C\\SC(C(C)=O)C(=O)OCC (stereo not shown)"
systemtested = "Candida albicans (C.alb)"
reportedvalue = "< 4 µg/mL"


Which MIC reading was recorded for the compound "CCCCCCCNC(=O)/C=C\SC(C(C)=O)C(C)=O" ?
< 4 µg/mL

----------
# Test system: Pellicularia filamentosa (f. sp. sasiki)
# test: whole plant or invertebrate
# Format: in vivo
# protocolConditions: 120 h; read-out: % control RSB
We begin with a simple list: items and their reported pest or weed control at 300 ppm.
Give a bare numeral; the unit % is implied.

// below: answered molecules
[[record]]
molecule = "CCCCCNC(=O)/C=C\\SC(C(C)=O)C(C)=O"
systemtested = "Pellicularia filamentosa (f. sp. sasiki)"
measurementtype = "pest or weed control at 300 ppm"
reportedvalue = 0

[[record]]
molecule = "CCCCCCCNC(=O)/C=C\\SC(C(C)=O)C(C)=O"
systemtested = "Pellicularia filamentosa (f. sp. sasiki)"
measurementtype = "pest or weed control at 300 ppm"
reportedvalue = 0

[[record]]
molecule = "CCCCCCCCNC(=O)/C=C\\SC(C(=O)NCCCCCCCC)C(=O)OCC (stereo not drawn)"
systemtested = "Pellicularia filamentosa (f. sp. sasiki)"
measurementtype = "pest or weed control at 300 ppm"
reportedvalue = 90

[[record]]
molecule = "CCCCCCCCNC(=O)/C(Cl)=C(/Cl)SC(C(C)=O)C(C)=O"
systemtested = "Pellicularia filamentosa (f. sp. sasiki)"
measurementtype = "pest or weed control at 300 ppm"
reportedvalue = 0


Which pest or weed control at 300 ppm reading was recorded for the molecule "CCCCCCNC(=O)/C(Cl)=C(/Cl)SC(C(C)=O)C(C)=O" ?
0

Same read-out for "CCCCCCNC(=O)/C=C\SC(C(C)=O)C(C)=O" ?
0

----------
# Test system: Piricularia oryzae
# test: whole plant or invertebrate
# Format: in vivo
# protocolConditions: Pyricularia oryzae, read-out: % control RB
Label y when pest or weed control at 200 ppm is at or above 80%; otherwise label n.

[[record]]
compound = "CCCCCCCCNC(=O)/C=C\\SC(C(=O)Nc1ccccc1Cl)C(=O)OCC (stereo not shown)"
labelclass = "y"

[[record]]
compound = "CCCCCCNC(=O)/C=C\\SC(C(C)=O)C(C)=O"
labelclass = "y"

[[record]]
compound = "CCCCCCCCNC(=O)/C=C\\SC(C(=O)NCCC)C(=O)NCCC"
labelclass = "n"


Can "CC(=O)C(S/C(Cl)=C(/Cl)C(=O)NC1CCCCC1)C(C)=O" be said to have pest or weed control at 200 ppm at or above 80%?
n

Same read-out for "CCCCCCCCNC(=O)/C=C\SC(C(C)=O)C(C)=O" ?
y

Same read-out for CCCCCCCCNC(=O)/C=C\SC(C(=O)NCCCCCC#N)C(=O)OCC (stereo not shown) ?
y

Same read-out for "CCCCCCCCNC(=O)/C=C\SC1C(=O)CC(C)(C)CC1=O" ?
n

Same read-out for CCCCCCCCNC(=O)/C=C\SC(C(C)=O)C(=O)NCc1ccccc1 (stereo not shown) ?
n

Same read-out for CCCCCCCCNC(=O)/C=C\SC(C(=O)Nc1nccs1)C(=O)OCC (stereo not shown) ?
n

Same read-out for CCCCCCCCNC(=O)/C=C\SC(C(C)=O)C(=O)OCC (stereo not shown) ?
n

----------
# Test system: Pseudomonas fluorescens (Ps.fl)
# test: MIC, broth two-fold serial dilution (Table 3), Ps.fl
# Type: cell-based
# protocolConditions: Table 3, broth two-fold serial dilution, read-out: MIC Ps.fl
measurementType: MIC

// below: answered molecules
[[record]]
molecule = "CCCCCCCCNC(=O)/C=C\\SC(C(C)=O)C(C)=O [Example 1]"
reportedvalue = "> 500 µg/mL"

[[record]]
molecule = "CCCCCCCCNC(=O)/C=C\\SC(C(=O)NCc1cccnc1)C(=O)OCC (centres unmarked) [Example 49]"
reportedvalue = "> 500 µg/mL"

[[record]]
molecule = "CCCCCCCCNC(=O)/C(Cl)=C(/Cl)SC(C(C)=O)C(C)=O [Example 2]"
reportedvalue = "> 500 µg/mL"

[[record]]
molecule = "CCCCCCCCNC(=O)/C=C\\SC(C(=O)Nc1cc(C)ccc1Cl)C(=O)OCC (centres unmarked) [Example 42]"
reportedvalue = "8 µg/mL"


Continue with the molecule presented below.
Which MIC reading was recorded for the molecule CC(=O)C(S/C(Cl)=C(/Cl)C(=O)NC1CCCCC1)C(C)=O [Example 6] ?
> 500 µg/mL

----------
# Tested on: Puccinia recondita (f. sp. tritici Races PKB and PLD)
# test: whole plant or invertebrate
# Type: in vivo
# protocolConditions: Puccinia recondita, 240 h; read-out: % control WLR
measurementType: pest or weed control at 200 ppm (%)
Give a bare numeral; the unit % is implied.

[[record]]
molecule = "CCCCCCCCNC(=O)/C=C\\SC(C(C)=O)C(=O)C1CC1 (stereo not drawn) [Example 29]"
measurementtype = "pest or weed control at 200 ppm"
reportedvalue = 0

[[record]]
molecule = "CCCCCCCCNC(=O)/C=C\\SC(C(=O)Nc1cccc(OC)c1)C(=O)OCC (stereo not drawn) [Example 23]"
measurementtype = "pest or weed control at 200 ppm"
reportedvalue = 50

[[record]]
molecule = "CCCCCCCCNC(=O)/C=C\\SC(C(=O)Nc1nccs1)C(=O)OCC (stereo not drawn) [Example 25]"
measurementtype = "pest or weed control at 200 ppm"
reportedvalue = 75

[[record]]
molecule = "CCCCCCCCNC(=O)/C=C\\SC(C(=O)NCCC)C(=O)OCC (stereo not drawn) [Example 15]"
measurementtype = "pest or weed control at 200 ppm"
reportedvalue = 62

[[record]]
molecule = "CCCCCCCCNC(=O)/C=C\\SC(C(C)=O)C(=O)Nc1ccccc1OC (stereo not drawn) [Example 30]"
measurementtype = "pest or weed control at 200 ppm"
reportedvalue = 0


Which pest or weed control at 200 ppm reading was recorded for the molecule CCCCCCCCNC(=O)/C=C\SC(C(=O)NCC(C)C)C(=O)OCC (stereo not drawn) [Example 14] ?
50

Same read-out for CCCCCCCCNC(=O)/C=C\SC(C(=O)NCc1ccc(C)cc1)C(=O)OCC (stereo not drawn) [Example 33] ?
0

Same read-out for CCCCCCCCNC(=O)/C=C\SC(C(=O)NCCCC)C(=O)OCC (stereo not drawn) [Example 13] ?
50

Same read-out for CCCCCCCCNC(=O)/C=C\SC(C(=O)NCCC)C(=O)NCCC [Example 19] ?
62

Same read-out for CCCCCCCCNC(=O)/C=C\SC(C(C)=O)C(=O)Nc1ccccc1 (stereo not drawn) [Example 31] ?
50

Same read-out for CCCCCCCCNC(=O)/C=C\SC(C(=O)NC(C)CC)C(=O)OCC (stereo not drawn) [Example 16] ?
72

Same read-out for CCCCCCCCCCNC(=O)C(S/C=C\C(=O)NCCCCCCCC)C(=O)OCC (stereo not drawn) [Example 26] ?
75
